experiment: activity coefficient (dimensionless); of the first substance listed, at infinite dilution; xn = mol fraction of the nth substance listed; conditions: 333.5 K; Liquid; Chromatography; x1 = 0
measurement.name: activity coefficient
One number for each entry.

Provide activity coefficient values for the following items, in order.
1. CCCCCCCCCC [decane] + CCOS(=O)(=O)[O-].CCn1cc[n+](C)c1
2. CCCO [propan-1-ol] + CCOS(=O)(=O)[O-].CCn1cc[n+](C)c1
3. CCCCCCCC [octane] + CCOS(=O)(=O)[O-].CCn1cc[n+](C)c1
4. CCC(=O)OC [methyl propanoate] + CCOS(=O)(=O)[O-].CCn1cc[n+](C)c1
5. CCC=O [propanal] + CCOS(=O)(=O)[O-].CCn1cc[n+](C)c1
6. CCCCC=O [pentanal] + CCOS(=O)(=O)[O-].CCn1cc[n+](C)c1
7. Cc1ccccc1 [toluene] + CCOS(=O)(=O)[O-].CCn1cc[n+](C)c1

Completion:
331
1.12
119
4.58
1.94
5.19
5.45

For every listed record, write down its activity coefficient.
1. c1ccccc1 [benzene] + CCOS(=O)(=O)[O-].CCn1cc[n+](C)c1
2. CCCCCCCCC [nonane] + CCOS(=O)(=O)[O-].CCn1cc[n+](C)c1
3. CCO [ethanol] + CCOS(=O)(=O)[O-].CCn1cc[n+](C)c1

Completion:
2.79
200
0.73

----------
test: activity coefficient (dimensionless); of the first substance listed, at infinite dilution; xn = mol fraction of the nth substance listed; settings: 364.7 K; Liquid; Chromatography; x1 = 0
Threshold check on activity coefficient: strictly below 5 is TRUE; on or above 5 is FALSE.

Example cases with answers are listed next.
compound="CCc1ccccc1 [ethylbenzene] + CCOS(=O)(=O)[O-].CCn1cc[n+](C)c1" group_label=FALSE
compound="c1ccccc1 [benzene] + CCOS(=O)(=O)[O-].CCn1cc[n+](C)c1" group_label=TRUE
compound="CCCc1ccccc1 [propylbenzene] + CCOS(=O)(=O)[O-].CCn1cc[n+](C)c1" group_label=FALSE

Turning now to a further compound:
Prompt: For CCCCCO [pentan-1-ol] + CCOS(=O)(=O)[O-].CCn1cc[n+](C)c1 , is the recorded activity coefficient below the cut-off of 5?
Completion: TRUE

----------
experiment: activity coefficient (dimensionless); of the first substance listed, at infinite dilution; xn = mol fraction of the nth substance listed; details: 344 K; Liquid; Chromatography; x1 = 0
Exercise: state measured activity coefficient for each of the molecules provided.
Give bare numbers.

Use the examples below as a reference point.
molecule="CCC(=O)OC [methyl propanoate] + CCOS(=O)(=O)[O-].CCn1cc[n+](C)c1" experimental_result=4.38
molecule="CCCC(=O)OC [methyl butanoate] + CCOS(=O)(=O)[O-].CCn1cc[n+](C)c1" experimental_result=7.29
molecule="CCCC=O [butanal] + CCOS(=O)(=O)[O-].CCn1cc[n+](C)c1" experimental_result=3.35

Here is the next item to consider.
Prompt: Fill blank: measured activity coefficient of the molecule CCC(C)O (centres undefined) [butan-2-ol] + CCOS(=O)(=O)[O-].CCn1cc[n+](C)c1 is ____.
Completion: 1.56
